For each entry below, report its CLint scaled at 1 µM value.
test-summary: Intrinsic clearance in rat liver microsomes at 1 uM preincubated with microsomes followed by NADPH addition measured up to 45 mins by LC-MS/MS analysis
Type: ADME
assay-context: read-out: CLH
Report field: quantity (unit follows the number).

* CC(C)c1cc(CNC(=O)c2ccc(Cl)c(OC3CCN(C)CC3)c2)on1 | 42.5 mL/min/kg

Now for another entry.
Give its CLint scaled at 1 µM value. Item: COc1ccc(C(=O)NCc2cc(C(C)C)no2)cc1OC1CCN(C)CC1 95 mL/min/kg

----------
test-summary: Fraction unbound in human plasma after 4 hrs by LC-MS/MS based equilibrium dialysis method
Format: ADME, cell-free
measurement-name: fraction unbound at 4 h
Give bare numbers.

Returns the measured fraction unbound at 4 h for the input molecule. Input: CC(C)c1cc(CNC(=O)c2ccc(Cl)c(OC3CCN(C)CC3)c2)on1 0.31
